Tested on: RNA polymerase II Serine 5 phosphorylation (Rpb1 CTD), downstream substrate of CDK7
Procedure Summary: Imaging-based cellular RNA PolII Ser5 phosphorylation assay in A549 cells
Type: cell-based, human
Condition Context: Homo sapiens, A549, 3 h, challenged with compound for 3 hours, read-out: pRNA polII Ser5 (A549) pIC50 (converted)
Binary call on IC50 with cut-off 2000 nM: strictly below means 1.0, and equality or higher means 0.0.

* CCn1ccc(CNc2ncc3c(n2)CN(C(=O)[C@H]2CCN(C)C[C@@H]2c2ccccc2)[C@H](C)C3)n1 | 1.0
* C[C@@H]1Cc2cnc(NCc3ccn(C)n3)nc2CN1C(=O)[C@H]1CCN(C)C[C@@H]1c1cccc(C2CC2)c1 (relative stereo) | 1.0
* Cc1ncc(CNc2ncc3c(n2)CN(C(=O)[C@H]2CCN(C)C[C@@H]2c2ccccc2)[C@H](C)C3)[nH]1 | 0.0
* C[C@H]1CN(C(=O)[C@H]2CCN(C)C[C@@H]2c2ccccc2)[C@@H](C)c2nc(NC3CCOCC3)ncc21 (relative stereo) | 0.0
* CO[C@H]1CC[C@H](Nc2ncc3c(n2)CN(C(=O)[C@H]2CCN(C)C[C@@H]2c2ccc(C)nc2)[C@H](C)C3)CC1 (relative stereo) | 1.0
* C[C@@H]1Cc2cnc(NC3CCOCC3)nc2CN1C(=O)[C@@H]1CCN(C)C[C@H]1C(F)(F)F [Compound 140a] | 0.0
* CN1CCN(C(=O)N2Cc3nc(NC4CCOCC4)ncc3CC2(C)C)[C@@H](c2ccccc2)C1 | 1.0
* C[C@@H]1Cc2cnc(NCc3c(F)cccc3F)nc2CN1C(=O)[C@H]1CCN(C)C[C@@H]1c1ccccc1 | 1.0
* C[C@@H]1Cc2cnc(NC3CCOCC3)nc2CN1C(=O)[C@H]1CCN(C)C[C@@H]1C1CC1 (racemic) [Compound 111] | 0.0
* C[C@@H]1Cc2cnc(NC3CCOCC3)nc2CN1C(=O)[C@@H]1CCN(C)C[C@H]1c1cccnc1 (relative stereo) | 0.0
* C[C@@H]1Cc2cnc(NCc3cnn(C)c3)nc2CN1C(=O)[C@H]1CCN(C)C[C@@H]1c1ccccc1 | 0.0

---

The entries below come with measured log10(IC50) values attached.
Test system: RNA polymerase II Serine 5 phosphorylation (Rpb1 CTD), downstream substrate of CDK7
Procedure Summary: Imaging-based cellular RNA PolII Ser5 phosphorylation assay in A549 cells
Assay type: cell-based, human
Condition Context: Homo sapiens, A549, 3 h, challenged with compound for 3 hours, read-out: pRNA polII Ser5 (A549) pIC50 (converted)
Metric Name: log10(IC50) (log10 of the value in nM)

• C[C@@H]1Cc2cnc(N[C@@H]3CCC(=O)N(C)C3)nc2CN1C(=O)[C@H]1CCN(C)C[C@@H]1c1ccccc1 (relative stereo) [Compound 6] = 2.92
• C[C@@H]1Cc2cnc(NC[C@H]3CCCO3)nc2CN1C(=O)[C@H]1CCN(C)C[C@@H]1c1ccccc1 [Compound 68] = 3.38
• C[C@@H]1Cc2cnc(NCc3ccn(C)n3)nc2CN1C(=O)[C@@H]1CCN(C)C[C@H]1c1cccc(OC(F)(F)F)c1 (relative stereo) [Compound 127] = 3.18
• C[C@H](Nc1ncc2c(n1)CN(C(=O)[C@H]1CCN(C)C[C@@H]1c1ccccc1)[C@H](C)C2)c1ccccc1 [Compound 23] = 2.48
• CC(C)N1CCN(C(=O)N2Cc3nc(NC4CCOCC4)ncc3C[C@H]2C)[C@@H](c2ccccc2)C1 [Compound 206] = 2.37
• Cc1c(Nc2ncc3c(n2)CN(C(=O)[C@H]2CCN(C)C[C@@H]2c2ccccc2)[C@H](C)C3)cnn1C [Compound 87] = 2.82
• Cc1cccc([C@H]2CN(C)CC[C@@H]2C(=O)N2Cc3nc(Nc4cnn(C)c4)ncc3[C@@H]3C[C@@H]32)c1 (relative stereo) [Compound 203] = 2.17
• CCN1CC[C@H](C(=O)N2Cc3nc(NC4CCOCC4)ncc3C[C@H]2C)[C@@H](c2ccccc2)C1 (single isomer, unassigned) [Compound 158] = 1.89
• Cc1cccc([C@@H]2CN(C)CC[C@H]2C(=O)N2Cc3nc(NC4CCOCC4)ncc3C[C@H]2C)c1 (relative stereo) [Compound 137] = 2.98
• C[C@@H]1Cc2cnc(NC3CCOCC3)nc2CN1C(=O)[C@H]1CCN(C)C[C@@H]1c1ccc(F)c(Cl)c1 (relative stereo) [Compound 114] = 1.75
• CC(C)n1cc(CNc2ncc3c(n2)CN(C(=O)[C@H]2CCN(C)C[C@@H]2c2ccccc2)[C@H](C)C3)cn1 [Compound 30] = 3.59
• C[C@@H]1Cc2cnc(N[C@H](CO)c3ccccc3)nc2CN1C(=O)[C@H]1CCN(C)C[C@@H]1c1ccccc1 [Compound 72] = 2.30
• [2H]C([2H])(Nc1ncc2c(n1)CN(C(=O)[C@H]1CCN(C)C[C@@H]1c1ccccc1)[C@H](C)C2)c1ccccc1 [Compound 70] = 2.17
• C[C@H]1Cc2cnc(Nc3cnn(C)c3)cc2CN1C(=O)[C@H]1CCN(C)C[C@@H]1c1ccccc1 (relative stereo) [Compound 176] = 2.58
• CN1CC[C@H](C(=O)N2Cc3nc(Nc4cnn(C)c4)ncc3[C@@H]3C[C@@H]32)[C@@H](c2ccccc2)C1 [Compound 200] = 2.51
• C[C@@H]1Cc2cnc(NC3CCN(S(=O)(=O)C4CC4)CC3)nc2CN1C(=O)N1CCN(C)C[C@@H]1c1ccccc1 [Compound 210] = 2.04
• C[C@@H]1Cc2cnc(NCc3ccccc3)nc2CN1C(=O)[C@H]1CCN(C)C[C@@H]1C(F)(F)F (relative stereo) [Compound 142] = 3.62
